- testMethodNotes: Log D7.4 shake-flask octanol-water
- Format: physicochemical
- measurementSetup: pH 7.4
readoutType: logD
Numbers only.

Some compounds with known logD results, for comparison:
# compound, obsValue
rows = [
    ("O=C(O)C1CCCN1c1ncc(-c2ccc3c(Nc4cnccn4)ccnc3c2)cn1 (stereo not shown)", 0.1),
    ("Cc1cc2c(Nc3cnccn3)ccnc2cc1-c1cnc(N2CCCNCC2)nc1", 2.3),
]

Hi there! I need logD for each item below, if you can.
1. Cc1c(-c2cnc(N3CCCN(C)CC3)nc2)ccc2c(Nc3cnccn3)ccnc12
2. Cc1cnc(Nc2ccnc3cc(-c4cnc(N5CCCN(C)CC5)nc4)ccc23)cn1
3. COc1ccc(NC(=O)c2ccc(-c3cccc(N4CCOCC4)c3)cc2N)cc1Cl
4. CN1CCCN(c2ncc(-c3ccc4c(Nc5cnccn5)ccnc4c3)cn2)CC1
5. CN1CCN(c2ncc(-c3ccc4c(N[C@@H]5CCCC[C@H]5O)ccnc4c3)cn2)CC1

1. 2.5
2. 2.9
3. 3.6
4. 2.6
5. 1.7
